- target_system: Recombinant full length human OGA enzyme (Homo sapiens, UniProt O60502)
- Construct: Recombinant full length human OGA enzyme was purchased from Origene
- Sequence (O60502 whole entry): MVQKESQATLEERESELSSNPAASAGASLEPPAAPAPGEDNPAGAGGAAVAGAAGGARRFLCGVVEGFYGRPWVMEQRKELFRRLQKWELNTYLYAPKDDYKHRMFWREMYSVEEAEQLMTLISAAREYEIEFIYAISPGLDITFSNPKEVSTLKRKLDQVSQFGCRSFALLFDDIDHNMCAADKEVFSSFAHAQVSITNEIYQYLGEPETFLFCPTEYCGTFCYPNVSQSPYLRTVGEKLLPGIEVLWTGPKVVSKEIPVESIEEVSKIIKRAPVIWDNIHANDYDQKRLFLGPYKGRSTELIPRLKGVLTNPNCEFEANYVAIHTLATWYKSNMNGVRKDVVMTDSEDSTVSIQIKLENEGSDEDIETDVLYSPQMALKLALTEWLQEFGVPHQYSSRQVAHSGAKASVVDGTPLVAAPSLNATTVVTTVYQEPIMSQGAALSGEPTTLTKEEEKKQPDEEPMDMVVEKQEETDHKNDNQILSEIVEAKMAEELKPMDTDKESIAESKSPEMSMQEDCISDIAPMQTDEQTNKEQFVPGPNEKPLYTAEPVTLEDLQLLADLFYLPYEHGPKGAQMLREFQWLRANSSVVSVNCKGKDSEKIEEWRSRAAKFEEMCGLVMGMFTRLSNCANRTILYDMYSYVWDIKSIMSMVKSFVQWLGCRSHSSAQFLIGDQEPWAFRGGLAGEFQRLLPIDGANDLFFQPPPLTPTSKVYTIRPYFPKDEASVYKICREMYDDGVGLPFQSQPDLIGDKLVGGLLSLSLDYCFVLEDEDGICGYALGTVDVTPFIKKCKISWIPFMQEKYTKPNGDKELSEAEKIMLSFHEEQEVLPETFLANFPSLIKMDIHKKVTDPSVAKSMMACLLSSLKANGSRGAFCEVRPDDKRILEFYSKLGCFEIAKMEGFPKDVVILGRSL
- experiment: OGA Enzyme Inhibition Biochemical Assay
- reported_conditions: 1 nM OGA, 100 μM 4-MUGlcNAc (Km), pH 6.4, 90 minutes at room temperature, 10-point dose-response from 20 μM
Property: pIC50; scope: individual compounds
The meaning of pIC50 here: minus log10 of the concentration in molar units.

Some compounds with recorded pIC50:
| compound | pIC50 |
| --- | --- |
| CC(=O)Nc1nc(F)c(CN2CC[C@H](Cc3cc(C)nc(C)n3)C2)s1 | 8.00 |
| CC(=O)Nc1ncc([C@H](C)N2CCC[C@H](Cc3ncc(F)cn3)C2)s1 (single isomer, unassigned) | 9.00 |

Incoming: Given CC(=O)Nc1ncc(CN2CC(Cc3ncc(F)cn3)CC(F)(F)C2)s1 (stereo not shown) , respond with its pIC50.
Outgoing: 6.35
